Reference source: ChEMBL document CHEMBL3988442

# Species: Homo sapiens
# experimental_protocol: To identify inhibition of the IFN signalling (Jak-Stat) pathway via expression of an eGFP reporter gene under the control of an IFN-stimulated response element (ISRE) containing MxA promoter.
# Format: functional
# Parameters: scale not given: direction of the effect not stated beside the values
# assay_context: 30 µM
Each record here notes measured Percent Effect.
Field format: number, assumed %, no unit text.

Inquiry: Would you mind telling me what Percent Effect value was observed for CCc1cnc2c(c1NCc1ccncc1)c(=O)n(C)c(=O)n2C ?
Reply text: 14.7

Inquiry: Would you mind telling me what Percent Effect value was observed for COc1ccc(C2=CCN(C(=O)CN(C)CC(N)=O)CC2)cc1 ?
Reply text: 16.9

Inquiry: Would you mind telling me what Percent Effect value was observed for OCC1CCCN1c1cc(N2CCC(OC3CCCC3)CC2)ncn1 (centres undefined) ?
Reply text: -7.13

----------
# Test system: Trypanosoma cruzi
# experimental_protocol: Trypanosoma cruzi phosphomannomutase and mannose-1-phosphate guanylyltransferase assay
# Assay type: functional
# Design: scale not given: direction of the effect not stated beside the values
# assay_context: 10 µM
Each record here notes measured Percent Effect.
I'd appreciate it if you wrote the number followed by its unit.

- compound: "CCS(=O)(=O)N1CCO[C@H]2[C@H](OCCCn3cccn3)CC[C@@H]21"
  Percent Effect: "3.48%"
- compound: "Cc1cnn(CC2CCCN2C(=O)c2cc3ccccc3[nH]2)c1 (stereo not drawn)"
  Percent Effect: "7.74%"
- compound: "Cc1cnn(CC2CCN(CC(O)COc3ccc(F)cc3)CC2)c1 (stereo not drawn)"
  Percent Effect: "-1.87%"

Proceed to the following item.
Inquiry: Under Trypanosoma cruzi: Percent Effect value of O=C(C(CNCc1ccncc1)c1ccccc1)N1CCOCC1 (stereo not drawn) ?
Reply text: -6.59%

----------
Each record here notes measured Percent Effect.
# tested_on: Arginase-2, mitochondrial (Homo sapiens) (UniProt P78540)
# Sequence (whole entry): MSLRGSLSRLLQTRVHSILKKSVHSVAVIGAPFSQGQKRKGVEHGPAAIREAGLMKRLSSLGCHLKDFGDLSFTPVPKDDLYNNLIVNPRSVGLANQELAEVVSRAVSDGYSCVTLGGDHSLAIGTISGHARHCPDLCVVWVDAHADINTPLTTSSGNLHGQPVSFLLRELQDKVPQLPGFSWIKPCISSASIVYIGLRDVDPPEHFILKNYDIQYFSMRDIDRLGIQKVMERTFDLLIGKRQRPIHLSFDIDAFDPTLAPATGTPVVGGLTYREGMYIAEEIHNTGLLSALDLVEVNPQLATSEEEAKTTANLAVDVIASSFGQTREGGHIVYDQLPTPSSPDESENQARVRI
# experimental_protocol: in vitro enzyme assay to detect the production of urea directly proportional to the activity of Arginase II; further: in the data most compounds retested in dose-response had high values
# Format: functional
# Set-up: scale not given: direction of the effect not stated beside the values
# assay_context: 33.3 µM
Field format: number, assumed %, no unit text.

Past entries and their recorded results:
- compound: "COC(=O)COc1nc(CC(C)C)c2c(c1C#N)CCCC2"
  readout_units: "%"
  Percent Effect: -5.94
- compound: "CN1C(=O)C[C@@H]2[C@@H]1CCN2C(=O)c1ccc[nH]1"
  readout_units: "%"
  Percent Effect: -3.99

Proceed to the following item.
Inquiry: Would you mind telling me what Percent Effect value was observed for COc1c(C2CCCN2Cc2c(C)noc2C)c(C)nn1C (stereo not given) ?
Reply text: 1.33

----------
# tested_on: Tyrosyl-tRNA synthetase, putative (Trypanosoma cruzi (strain CL Brener)) (UniProt Q4DSP6)
# Sequence (whole entry): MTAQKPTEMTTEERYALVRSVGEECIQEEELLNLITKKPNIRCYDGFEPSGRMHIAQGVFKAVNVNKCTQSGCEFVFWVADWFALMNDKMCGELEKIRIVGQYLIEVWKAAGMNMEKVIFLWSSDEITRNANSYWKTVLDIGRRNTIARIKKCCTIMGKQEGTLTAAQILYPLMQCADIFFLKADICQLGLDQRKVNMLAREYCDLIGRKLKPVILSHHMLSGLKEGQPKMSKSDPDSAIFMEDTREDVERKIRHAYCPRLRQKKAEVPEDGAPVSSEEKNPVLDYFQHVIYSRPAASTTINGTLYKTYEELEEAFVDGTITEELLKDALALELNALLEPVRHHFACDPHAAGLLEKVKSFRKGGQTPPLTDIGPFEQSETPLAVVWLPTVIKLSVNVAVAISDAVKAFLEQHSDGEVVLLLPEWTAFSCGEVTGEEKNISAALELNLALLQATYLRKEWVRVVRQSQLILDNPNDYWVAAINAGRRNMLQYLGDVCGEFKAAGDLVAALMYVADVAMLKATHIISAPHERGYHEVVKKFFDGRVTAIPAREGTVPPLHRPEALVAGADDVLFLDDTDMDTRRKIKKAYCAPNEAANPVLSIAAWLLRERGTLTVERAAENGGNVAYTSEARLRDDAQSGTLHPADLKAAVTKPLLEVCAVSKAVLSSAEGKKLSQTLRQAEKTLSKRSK
# experimental_protocol: Trypanosoma cruzi tyrosyl tRNA synthetase (TcYRS) SOP
# Format: functional
# Set-up: scale not given: direction of the effect not stated beside the values
# assay_context: 30 µM
Each record here notes measured Percent Effect.
Field format: number, assumed %, no unit text.

Past entries and their recorded results:
- molecule: "Cc1cc(C)c(OCC(=O)NS(=O)(=O)c2c(C)noc2C)c(C)c1"
  Percent Effect, %: 10.8
- molecule: "c1ccc(-c2ncc(CNC3CCc4ncnn4C3)cn2)cc1 (stereo unspecified)"
  Percent Effect, %: 10.1
- molecule: "CC(NC1(CNC(=O)CC(C)(C)C)CCOCC1)c1ccccc1 (stereo unspecified)"
  Percent Effect, %: 11.1
- molecule: "COC[C@@]12CCO[C@@H]1CCN(C(=O)Cc1ccccc1F)C2"
  Percent Effect, %: 11.1
- molecule: "CS(=O)(=O)c1ccc(C(O)CN2CCC(c3ccn[nH]3)CC2)cc1 (stereo unspecified)"
  Percent Effect, %: 16.5

Proceed to the following item.
Inquiry: Would you mind telling me what Percent Effect value was observed for O=C(c1ccno1)N1CCC2(CC1)C(=O)N(CC1CC1)c1ccccc12 ?
Reply text: 0

----------
# Tested on: Trypanosoma cruzi
# experimental_protocol: Trypanosoma cruzi phosphomannomutase and mannose-1-phosphate guanylyltransferase assay
# Assay type: functional
# Design: scale not given: direction of the effect not stated beside the values
# assay_context: 10 µM
readout_name: Percent Effect (%)
Field format: number, assumed %, no unit text.

Inquiry: Would you mind telling me what Percent Effect value was observed for N#Cc1ccc(C(=O)N2CC[C@H]3[C@@H]2CCC(=O)N3c2cccnc2)cc1 ?
Reply text: -2.44

Inquiry: Would you mind telling me what Percent Effect value was observed for O=C(c1cccnc1)N1CCn2nnc(COc3cccnc3)c2C1 ?
Reply text: -6.13

Inquiry: Would you mind telling me what Percent Effect value was observed for CCOCC1CN(S(C)(=O)=O)Cc2cnn(CC3CCOCC3)c21 (stereo unspecified) ?
Reply text: -5.94

Inquiry: Would you mind telling me what Percent Effect value was observed for CC[C@@H]1N(Cc2ccsc2)CCC[C@]12CCC(=O)N2C ?
Reply text: -1.69

Inquiry: Would you mind telling me what Percent Effect value was observed for Cc1cc(N2CCC3(CCC(=O)N(CC4CC4)C3)CC2)nc(N)n1 ?
Reply text: -0.88

Inquiry: Would you mind telling me what Percent Effect value was observed for CN(C)C(=O)N1Cc2nnn(C)c2C(COCC2CC2)C1 (stereo unspecified) ?
Reply text: 4.96

----------
# tested_on: Proteasome subunit beta (Trypanosoma cruzi) (UniProt O96673)
# Sequence (whole entry): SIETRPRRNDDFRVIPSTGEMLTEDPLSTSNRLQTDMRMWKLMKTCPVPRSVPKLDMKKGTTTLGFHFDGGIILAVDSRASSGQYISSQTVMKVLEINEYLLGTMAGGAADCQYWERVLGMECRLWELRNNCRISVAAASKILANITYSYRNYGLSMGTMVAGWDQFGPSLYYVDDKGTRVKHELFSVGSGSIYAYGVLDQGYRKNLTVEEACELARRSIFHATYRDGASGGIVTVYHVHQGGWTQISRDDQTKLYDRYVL
# experimental_protocol: Trypanosoma cruzi proteasome chymotrypsin-like activity (TcProtChymo) assay. Further: in the data most compounds retested in dose-response had high values.
# Type: functional
# Design: scale not given: direction of the effect not stated beside the values
# assay_context: 9.37 µM
readout_name: Percent Effect
I'd appreciate it if you wrote the number followed by its unit.

- compound: "CC(=O)N1[C@H](CN(C)C)C[C@@H]2CN(C(=O)c3cccc(F)c3)CC[C@@H]21"
  Percent Effect: "14.2%"

Inquiry: Would you mind telling me what Percent Effect value was observed for N#Cc1cc(NC(=O)c2ccsc2)ccc1N1CCC(O)CC1 ?
Reply text: 19.3%

Inquiry: Would you mind telling me what Percent Effect value was observed for CCc1ccc(S(=O)(=O)Nc2cn(C)cc(Br)c2=O)cc1 ?
Reply text: 11.6%

Inquiry: Would you mind telling me what Percent Effect value was observed for O=C(C[C@@H]1COC[C@H]2CN(Cc3ccc(F)cc3)C[C@@H]12)N1CCCCO1 ?
Reply text: 16.1%

Inquiry: Would you mind telling me what Percent Effect value was observed for CC(=O)N1CCC2(CC1)COCCN2CCN(C)C ?
Reply text: 3.59%

Inquiry: Would you mind telling me what Percent Effect value was observed for NC(=O)c1cc(C2CCCN(CCOCC(F)(F)F)C2)n[nH]1 (stereo unspecified) ?
Reply text: 8.45%

Inquiry: Would you mind telling me what Percent Effect value was observed for COc1ccc(C2CCCN2C(=O)c2csc(NC(C)=O)n2)cc1 (stereo unspecified) ?
Reply text: 4.56%

Inquiry: Would you mind telling me what Percent Effect value was observed for COc1ccc(Br)c(C(=O)NCC2CCN(C(=O)c3ccoc3)CC2)c1 ?
Reply text: 12.4%

Inquiry: Would you mind telling me what Percent Effect value was observed for CCc1ccc(OCC(O)CN2CCC(O)CC2)cc1 (stereo unspecified) ?
Reply text: 5.42%

Inquiry: Would you mind telling me what Percent Effect value was observed for Cc1ccccc1N1CC2(CCN(S(=O)(=O)c3cccs3)C2)CC1=O (stereo unspecified) ?
Reply text: 8.67%

Inquiry: Would you mind telling me what Percent Effect value was observed for CNC(=O)N1CCc2cc(C(=O)N(C)C)c(NCC3CC3)nc2CC1 ?
Reply text: 10.7%
